Numbers sourced from ChEMBL document CHEMBL1144186.

test: Displacement of [3H]nisoxetine from rat brain NAT; format: tissue-based
Items are presented alongside their recorded Ki.
Please answer in the form of a number followed by its unit of measurement.

// worked examples, Ki included
CCOc1ccccc1O[C@H](c1ccc(I)cc1)[C@H]1CNCCO1 :: 64 nM
CCOc1ccccc1O[C@H](c1ccc(I)cc1)[C@@H]1CNCCO1 :: 321 nM
CCOc1ccccc1O[C@@H](c1ccc(I)cc1)[C@@H]1CNCCO1 :: 53.8 nM

We next turn to a different compound, shown below.
Recall and state the measured Ki for `CCOc1ccccc1O[C@@H](c1ccc(I)cc1)[C@H]1CNCCO1` .
58.2 nM
